Record type: Ki measurement. Applies to: Melatonin receptor type 1A (Homo sapiens)

Use these answered entries as a reference point.
INSERT INTO results (compound, measured_parameter, measured_result) VALUES
  ('CC(=O)NCC1Cc2ccccc2N(CCc2ccccc2)C1 (racemic)', 'Ki', '246 nM'),
  ('CCC(=O)NC[C@@H]1CCc2ccccc2[C@@H]1c1ccccc1 (racemic)', 'Ki', '3.5 nM');

Okay, next one:
Looking up CC(=O)NCC1Cc2ccccc2N(c2ccccc2)C1 (single isomer, unassigned; (-)) , I see its Ki listed as 3.02 nM

---

Molecular target: UniProt:P49286
Sequence (P49286 whole entry): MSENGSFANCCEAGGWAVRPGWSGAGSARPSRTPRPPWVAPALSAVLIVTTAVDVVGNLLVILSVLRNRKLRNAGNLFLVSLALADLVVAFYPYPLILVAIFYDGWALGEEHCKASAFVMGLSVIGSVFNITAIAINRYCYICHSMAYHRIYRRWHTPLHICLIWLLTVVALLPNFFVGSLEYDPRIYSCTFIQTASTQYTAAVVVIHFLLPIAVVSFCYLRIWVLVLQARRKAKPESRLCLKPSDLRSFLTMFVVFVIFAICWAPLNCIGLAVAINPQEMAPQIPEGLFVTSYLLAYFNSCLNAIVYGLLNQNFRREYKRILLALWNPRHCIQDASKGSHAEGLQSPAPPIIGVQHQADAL
measured_parameter: log10 of Ki (log10 of the value in nM)
Remember, log10 of Ki, in nM.

Use the examples below as a reference point.
INSERT INTO assay_data (compound, measured_result) VALUES
  ('CCC(=O)NCC1=C(c2ccccc2)c2ccccc2CC1', 0.58),
  ('CC(=O)NCC1Cc2ccccc2N(CCc2ccccc2)C1 (racemic)', 1.67);

Query CCC(=O)NC[C@@H]1CN(C)c2ccccc2[C@@H]1c1ccccc1 (racemic) yields log10 of Ki of -0.32

compound CC(=O)NCC1Cc2ccccc2N(Cc2ccccc2)C1 (racemic) , log10 of Ki observed: 0.00

In plain terms, CCC(=O)NC[C@@H]1CCc2ccccc2[C@H]1c1ccccc1 (racemic) has a documented log10 of Ki of -0.64

According to the records, this compound CC(=O)NCC1Cc2ccccc2N(c2ccccc2)C1 (single isomer, unassigned; (-)) displays log10 of Ki of 0.14

---

Target: Melatonin receptor type 1B (Homo sapiens)
Sequence (whole entry): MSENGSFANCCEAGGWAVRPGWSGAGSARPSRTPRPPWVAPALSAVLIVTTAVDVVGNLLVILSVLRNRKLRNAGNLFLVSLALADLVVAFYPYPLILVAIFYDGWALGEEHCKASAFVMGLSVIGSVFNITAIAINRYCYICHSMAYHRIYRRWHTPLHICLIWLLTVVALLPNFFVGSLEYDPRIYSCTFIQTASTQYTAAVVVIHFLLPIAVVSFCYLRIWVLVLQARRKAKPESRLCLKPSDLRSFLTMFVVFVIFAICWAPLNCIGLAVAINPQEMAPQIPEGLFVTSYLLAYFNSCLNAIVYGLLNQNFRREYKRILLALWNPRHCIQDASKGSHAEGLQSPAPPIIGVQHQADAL
Test: Intrinsic activity at human MT2 receptor expressed in CHO cell membranes after 1 hr by [35S]GTPgammaS binding assay
Format: functional
Could you please mark fulfilled for values of Emax below 60% and not fulfilled for values at or above it?

Recorded results for 3 compounds are shown here.
INSERT INTO measurements (compound, qualitative_label) VALUES
  ('CCC(=O)NC[C@@H]1CCc2ccccc2[C@@H]1c1ccccc1 (racemic)', 'not fulfilled'),
  ('CC(=O)NCC1Cc2ccccc2N(Cc2ccccc2)C1 (racemic)', 'fulfilled'),
  ('CC(=O)NCC1Cc2ccccc2N(c2ccccc2)C1 (single isomer, unassigned; (-))', 'fulfilled');

Turning to the following compound.
INPUT: Is Emax strictly under 60% for the entry CC(=O)NCC1Cc2ccccc2N(c2ccccc2)C1 (racemic) ?
OUTPUT: fulfilled
